Target: catalytic domain of human Bub1 (amino acids 704-1085) (Homo sapiens, UniProt O43683)
Sequence (O43683 704-1085): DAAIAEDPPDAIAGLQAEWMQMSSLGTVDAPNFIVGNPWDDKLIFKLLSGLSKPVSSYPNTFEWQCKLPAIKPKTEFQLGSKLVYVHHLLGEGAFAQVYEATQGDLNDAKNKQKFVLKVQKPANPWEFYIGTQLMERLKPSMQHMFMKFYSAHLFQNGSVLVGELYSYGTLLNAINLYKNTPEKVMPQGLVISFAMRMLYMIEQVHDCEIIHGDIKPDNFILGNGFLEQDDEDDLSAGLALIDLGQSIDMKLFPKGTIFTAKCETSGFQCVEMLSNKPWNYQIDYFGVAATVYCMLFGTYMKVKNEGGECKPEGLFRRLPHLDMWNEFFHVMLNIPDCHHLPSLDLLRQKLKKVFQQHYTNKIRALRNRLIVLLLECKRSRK
parameter measured: IC50

For the compound `CCOC(=O)c1cnccc1Nc1nc(-c2nn(Cc3nnc(C)o3)c(C3CC3)c2C)ncc1OC` , what IC50 is on record?
2100 nM
